measurement_protocol: preliminary PK in mCRPC participants (Phase 1/2)
Format: in vivo, human
condition_details: male, human, plasma, oral, 480 mg, 480 mg QD, Mean (CV %); read-out: AUC0-24 Day 21
observable: AUC(0-t) (ng·h/mL)
Kindly answer with a numeric value in ng·h/mL, unit omitted.

// query AUC(0-t) value for entry COc1cc(O[C@H]2C(C)(C)[C@H](NC(=O)c3ccc(N4CCC(CN5CCN(c6ccc(C(=O)N[C@H]7CCC(=O)NC7=O)c(F)c6)CC5)CC4)cc3)C2(C)C)ccc1C#N
12900

###

measurement_protocol: food/PPI effect on single-dose PK in healthy volunteers (phase 1)
Assay type: in vivo, human
condition_details: male, human, plasma, oral, 200 mg, 200 mg alone, fasted; read-out: AUClast, Geometric LS Mean
observable: AUC(0-t) (ng·h/mL)
Kindly answer with a numeric value in ng·h/mL, unit omitted.

// query AUC(0-t) value for entry COc1cc(O[C@H]2C(C)(C)[C@H](NC(=O)c3ccc(N4CCC(CN5CCN(c6ccc(C(=O)N[C@H]7CCC(=O)NC7=O)c(F)c6)CC5)CC4)cc3)C2(C)C)ccc1C#N
3300

###

Test system: VCaP cells
measurement_protocol: apoptosis in VCaP cells (CaspaseGlo)
Assay type: cell-based
condition_details: Homo sapiens, CSS + 0.1 nM R1881, 72 hours, read-out: EC50, inducing apoptosis
Procedure: Intracellular prostate specific antigen (PSA) levels were determined using a PSA enzyme-linked immunosorbent assay (ELISA). […] The cell proliferation was determined using the CellTiter-Glo® assay. […] The CaspaseGlo® assay was carried out to measure the level of apoptosis in cells. To evaluate the pharmacological effect of Compound A in vitro, PSA, cell proliferation, and apoptosis assays were carried out in VCaP cells.
observable: EC50 (nM)
Kindly answer with a numeric value in nM, unit omitted.

Hi! What's the reported EC50 for COc1cc(O[C@H]2C(C)(C)[C@H](NC(=O)c3ccc(N4CCC(CN5CCN(c6ccc(C(=O)N[C@H]7CCC(=O)NC7=O)c(F)c6)CC5)CC4)cc3)C2(C)C)ccc1C#N [Compound A] on VCaP cells?
8

###

measurement_protocol: food/PPI effect on single-dose PK in healthy volunteers (phase 1)
Format: in vivo, human
condition_details: male, human, plasma, oral, 300 mg with esomeprazole 40 mg, fed; read-out: median Tmax
observable: Tmax (h)
Kindly answer with a numeric value in h, unit omitted.

// query Tmax value for entry COc1cc(O[C@H]2C(C)(C)[C@H](NC(=O)c3ccc(N4CCC(CN5CCN(c6ccc(C(=O)N[C@H]7CCC(=O)NC7=O)c(F)c6)CC5)CC4)cc3)C2(C)C)ccc1C#N [Compound A]
10

###

measurement_protocol: food/PPI effect on single-dose PK in healthy volunteers (phase 1)
Assay type: in vivo, human
condition_details: male, human, plasma, oral, 300 mg, 300 mg Alone; read-out: Tmax
observable: Tmax

// query Tmax value for entry COc1cc(O[C@H]2C(C)(C)[C@H](NC(=O)c3ccc(N4CCC(CN5CCN(c6ccc(C(=O)N[C@H]7CCC(=O)NC7=O)c(F)c6)CC5)CC4)cc3)C2(C)C)ccc1C#N
7 h

###

measurement_protocol: preliminary PK in mCRPC participants (Phase 1/2)
Format: in vivo, human
condition_details: male, human, plasma; oral administration, mCRPC participants; read-out: median Tmax
observable: Tmax

// query Tmax value for entry COc1cc(O[C@H]2C(C)(C)[C@H](NC(=O)c3ccc(N4CCC(CN5CCN(c6ccc(C(=O)N[C@H]7CCC(=O)NC7=O)c(F)c6)CC5)CC4)cc3)C2(C)C)ccc1C#N
~8 h

###

measurement_protocol: food/PPI effect on single-dose PK in healthy volunteers (phase 1)
Assay type: in vivo, human
condition_details: male, human, plasma, oral, 200 mg, Fed; read-out: CL/F_Obs, Geometric Mean (Geometric CV %) (converted)
observable: CL/F (mL/min)
Kindly answer with a numeric value in mL/min, unit omitted.

// query CL/F value for entry COc1cc(O[C@H]2C(C)(C)[C@H](NC(=O)c3ccc(N4CCC(CN5CCN(c6ccc(C(=O)N[C@H]7CCC(=O)NC7=O)c(F)c6)CC5)CC4)cc3)C2(C)C)ccc1C#N
315

###

Attribute: pIC50
Tested on: PSA
measurement_protocol: intracellular PSA ELISA in VCaP cells
Assay type: cell-based
condition_details: Homo sapiens, CSS + 0.1 nM R1881, 48 hours, read-out: IC50, inhibiting PSA expression
Scale: negative log10 of molar concentration, which is what pIC50 denotes.

>  <compound>
COc1cc(O[C@H]2C(C)(C)[C@H](NC(=O)c3ccc(N4CCC(CN5CCN(c6ccc(C(=O)N[C@H]7CCC(=O)NC7=O)c(F)c6)CC5)CC4)cc3)C2(C)C)ccc1C#N [Compound A]

>  <measured_on>
PSA

>  <observable>
pIC50

>  <measurement>
8.40

$$$$

// next entry
Hi! What's the reported pIC50 for CNC(=O)c1ccc(N2C(=S)N(c3ccc(C#N)c(C(F)(F)F)c3)C(=O)C2(C)C)cc1F [enzalutamide, reference compound] on PSA?
6.76

###

measurement_protocol: food/PPI effect on single-dose PK in healthy volunteers (phase 1)
Type: in vivo, human
condition_details: male, human, plasma, oral, 200 mg, Fed; read-out: AUCinf-Obs, Geometric Mean (Geometric CV %)
observable: AUC(0-inf) (ng·h/mL)
Kindly answer with a numeric value in ng·h/mL, unit omitted.

// query AUC(0-inf) value for entry COc1cc(O[C@H]2C(C)(C)[C@H](NC(=O)c3ccc(N4CCC(CN5CCN(c6ccc(C(=O)N[C@H]7CCC(=O)NC7=O)c(F)c6)CC5)CC4)cc3)C2(C)C)ccc1C#N [Compound A]
10600

###

measurement_protocol: food/PPI effect on single-dose PK in healthy volunteers (phase 1)
Assay type: in vivo, human
condition_details: male, human, plasma, oral, 300 mg, 300 mg Alone; read-out: CL/F_Obs, Geometric Mean (Geometric CV %) (converted)
observable: CL/F (mL/min)
Kindly answer with a numeric value in mL/min, unit omitted.

// query CL/F value for entry COc1cc(O[C@H]2C(C)(C)[C@H](NC(=O)c3ccc(N4CCC(CN5CCN(c6ccc(C(=O)N[C@H]7CCC(=O)NC7=O)c(F)c6)CC5)CC4)cc3)C2(C)C)ccc1C#N
459

###

measurement_protocol: food/PPI effect on single-dose PK in healthy volunteers (phase 1)
Assay type: in vivo, human
condition_details: male, human, plasma, oral, 40 mg Esomeprazole + 300 mg; read-out: CL/F_Obs, Geometric Mean (Geometric CV %) (converted)
observable: CL/F (mL/min)
Kindly answer with a numeric value in mL/min, unit omitted.

// query CL/F value for entry COc1cc(O[C@H]2C(C)(C)[C@H](NC(=O)c3ccc(N4CCC(CN5CCN(c6ccc(C(=O)N[C@H]7CCC(=O)NC7=O)c(F)c6)CC5)CC4)cc3)C2(C)C)ccc1C#N [Compound A]
515

###

measurement_protocol: preliminary PK in mCRPC participants (Phase 1/2)
Format: in vivo, human
condition_details: male, human, plasma, oral, 200 mg, 200 mg QD, Mean (CV %); read-out: AUC0-24 Day 1
observable: AUC(0-t) (ng·h/mL)
Kindly answer with a numeric value in ng·h/mL, unit omitted.

// query AUC(0-t) value for entry COc1cc(O[C@H]2C(C)(C)[C@H](NC(=O)c3ccc(N4CCC(CN5CCN(c6ccc(C(=O)N[C@H]7CCC(=O)NC7=O)c(F)c6)CC5)CC4)cc3)C2(C)C)ccc1C#N
1830

###

measurement_protocol: food/PPI effect on single-dose PK in healthy volunteers (phase 1)
Assay type: in vivo, human
condition_details: male, human, plasma, oral, 300 mg, 300 mg Alone; read-out: AUCinf-Obs, Geometric Mean (Geometric CV %)
observable: AUC(0-inf) (ng·h/mL)
Kindly answer with a numeric value in ng·h/mL, unit omitted.

// query AUC(0-inf) value for entry COc1cc(O[C@H]2C(C)(C)[C@H](NC(=O)c3ccc(N4CCC(CN5CCN(c6ccc(C(=O)N[C@H]7CCC(=O)NC7=O)c(F)c6)CC5)CC4)cc3)C2(C)C)ccc1C#N [Compound A]
10900

###

measurement_protocol: preliminary PK in mCRPC participants (Phase 1/2)
Format: in vivo, human
condition_details: male, human, plasma, oral, 200 mg, 200 mg QD, Mean (CV %); read-out: Cmax Day 1
observable: Cmax (ng/mL)
Kindly answer with a numeric value in ng/mL, unit omitted.

// query Cmax value for entry COc1cc(O[C@H]2C(C)(C)[C@H](NC(=O)c3ccc(N4CCC(CN5CCN(c6ccc(C(=O)N[C@H]7CCC(=O)NC7=O)c(F)c6)CC5)CC4)cc3)C2(C)C)ccc1C#N
110

###

measurement_protocol: preliminary PK in mCRPC participants (Phase 1/2)
Format: in vivo, human
condition_details: male, human, plasma, oral, 100 mg, 100 mg QD, Mean (CV %); read-out: AUC0-24 Day 21
observable: AUC(0-t)

// query AUC(0-t) value for entry COc1cc(O[C@H]2C(C)(C)[C@H](NC(=O)c3ccc(N4CCC(CN5CCN(c6ccc(C(=O)N[C@H]7CCC(=O)NC7=O)c(F)c6)CC5)CC4)cc3)C2(C)C)ccc1C#N
4610 ng·h/mL
